Test system: normal liver cell line HL-7702
Experiment: MTT cytotoxicity assay, normal liver cells
Format: cell-based
Details: Homo sapiens, L02, 24 h treatment, mean ± SE
Protocol: All the newly synthesized analogs were evaluated for their in vitro cytotoxicity against the hepatocellular carcinoma HepG2 cell line. Podo was utilized as a reference control in the current study. […] To measure the cytotoxic activity of the synthesized derivatives 2a-11 in hepatocel-lular carcinoma (HepG2) cell line (ATCC Cat No. HB-8065) as well as normal human liver cell line HL-7702 (ATCC Cat. No. 77402), cell viability assay was assessed using MTT assay method. […]
parameterMeasured: IC50 (µM)
Report the figure in µM without appending any unit label.

- molecule: "COc1ccc(C2=N/C(=C\\c3cc(OC)c(OC)c(OC)c3)C(=O)NN2c2ccccc2)cc1OC"
  parameterMeasured: "IC50"
  testValue: 29.1

Now consider the entry below.
// lookup IC50 for COc1cc([C@@H]2c3cc4c(cc3[C@H](O)[C@H]3COC(=O)[C@H]23)OCO4)cc(OC)c1OC [podo, podophyllotoxin, reference compound]
18.6
